Target Entity: Stb5 (UniProt P38699)
Sequence: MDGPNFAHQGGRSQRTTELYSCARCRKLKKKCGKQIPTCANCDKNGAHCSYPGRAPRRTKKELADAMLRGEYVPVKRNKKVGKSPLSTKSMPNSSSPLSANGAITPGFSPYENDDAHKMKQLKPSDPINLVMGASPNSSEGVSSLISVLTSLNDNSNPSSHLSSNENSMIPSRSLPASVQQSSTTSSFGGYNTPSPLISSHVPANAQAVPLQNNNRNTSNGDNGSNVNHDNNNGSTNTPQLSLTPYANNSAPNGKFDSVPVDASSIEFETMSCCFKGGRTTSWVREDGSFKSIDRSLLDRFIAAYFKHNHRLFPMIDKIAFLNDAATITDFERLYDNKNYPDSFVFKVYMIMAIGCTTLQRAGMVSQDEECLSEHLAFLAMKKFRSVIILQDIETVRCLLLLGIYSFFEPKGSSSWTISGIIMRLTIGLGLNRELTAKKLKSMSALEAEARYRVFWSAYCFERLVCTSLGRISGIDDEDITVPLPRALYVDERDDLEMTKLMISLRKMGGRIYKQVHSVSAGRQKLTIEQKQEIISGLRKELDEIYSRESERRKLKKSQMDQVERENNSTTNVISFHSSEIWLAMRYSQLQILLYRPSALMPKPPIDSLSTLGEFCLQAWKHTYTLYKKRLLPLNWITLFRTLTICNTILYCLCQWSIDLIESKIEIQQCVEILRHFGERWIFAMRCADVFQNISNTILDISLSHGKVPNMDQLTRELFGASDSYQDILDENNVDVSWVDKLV
Method Summary: PBM E-score (8-mer binding enrichment) (E-score (-0.5 to 0.5)); higher = stronger / more preferred TF binding
Measurement Context: protein concentration: 200 nM; construct: GST-full length
Over roughly 33,000 sequences, “E-score (-0.5 to 0.5)” has its median near -0.054; the highest 2% begin near 0.35. What follows is part of a selection rich in the highest values, with near analogues and random picks from the rest.
PBM E-score vs 0.03: at or above is y, below is n.

Residues: AGCGGCAA
Target Entity: Stb5 (UniProt P38699)
Assigned Label: y

Residues: TGACCTAA
Target Entity: Stb5 (UniProt P38699)
Assigned Label: n

Residues: AGCGGCCA
Target Entity: Stb5 (UniProt P38699)
Assigned Label: y

Residues: GGTCGGAA
Target Entity: Stb5 (UniProt P38699)
Assigned Label: y

Residues: CGTCGGAG
Target Entity: Stb5 (UniProt P38699)
Assigned Label: y

Residues: ACCCGTGC
Target Entity: Stb5 (UniProt P38699)
Assigned Label: n

Residues: AGTCGGAG
Target Entity: Stb5 (UniProt P38699)
Assigned Label: y

Residues: AGCTGGTC
Target Entity: Stb5 (UniProt P38699)
Assigned Label: n

Residues: CACAGCTA
Target Entity: Stb5 (UniProt P38699)
Assigned Label: n

Residues: CTGCTAGA
Target Entity: Stb5 (UniProt P38699)
Assigned Label: y

====

Target Entity: Stb5 (UniProt P38699)
Sequence: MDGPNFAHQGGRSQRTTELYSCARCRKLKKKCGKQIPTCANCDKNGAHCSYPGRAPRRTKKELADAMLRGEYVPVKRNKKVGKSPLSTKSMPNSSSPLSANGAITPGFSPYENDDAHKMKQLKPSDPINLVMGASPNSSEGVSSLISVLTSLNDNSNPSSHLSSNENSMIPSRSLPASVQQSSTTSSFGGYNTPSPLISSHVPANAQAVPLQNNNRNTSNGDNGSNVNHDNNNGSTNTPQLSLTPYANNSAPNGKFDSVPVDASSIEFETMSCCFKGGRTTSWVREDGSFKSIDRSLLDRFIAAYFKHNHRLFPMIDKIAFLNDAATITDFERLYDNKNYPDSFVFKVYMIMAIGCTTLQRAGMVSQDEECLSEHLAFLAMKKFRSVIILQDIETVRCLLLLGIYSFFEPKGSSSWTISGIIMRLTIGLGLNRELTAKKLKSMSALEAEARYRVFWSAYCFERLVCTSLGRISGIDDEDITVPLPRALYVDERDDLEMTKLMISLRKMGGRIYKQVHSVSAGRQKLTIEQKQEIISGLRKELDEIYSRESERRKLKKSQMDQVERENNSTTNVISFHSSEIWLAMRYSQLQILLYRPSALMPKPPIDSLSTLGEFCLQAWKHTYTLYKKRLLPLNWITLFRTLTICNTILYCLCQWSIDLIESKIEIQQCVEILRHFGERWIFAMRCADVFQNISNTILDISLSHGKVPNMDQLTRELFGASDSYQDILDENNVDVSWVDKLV
Method Summary: PBM E-score (8-mer binding enrichment) (E-score (-0.5 to 0.5)); higher = stronger / more preferred TF binding
Measurement Context: protein concentration: 200 nM; construct: GST-full length
In all, about 33,000 sequences were measured (“E-score (-0.5 to 0.5)”: median about -0.054, highest 2% from about 0.35 on). The full list was thinned out, with the highest values kept by preference.

Residues: ATACTATG
Target Entity: Stb5 (UniProt P38699)
PBM E-score: -0.0158

Residues: CTCATGCC
Target Entity: Stb5 (UniProt P38699)
PBM E-score: -0.103

Residues: AGCGGATA
Target Entity: Stb5 (UniProt P38699)
PBM E-score: 0.286

Residues: GACTTCCA
Target Entity: Stb5 (UniProt P38699)
PBM E-score: -0.177

Residues: AGCGGACG
Target Entity: Stb5 (UniProt P38699)
PBM E-score: 0.284

Residues: AGTGAAGA
Target Entity: Stb5 (UniProt P38699)
PBM E-score: -0.155

Residues: TACCGCCA
Target Entity: Stb5 (UniProt P38699)
PBM E-score: 0.323

Residues: CTCCACAG
Target Entity: Stb5 (UniProt P38699)
PBM E-score: -0.313

Residues: CAATTGTC
Target Entity: Stb5 (UniProt P38699)
PBM E-score: -0.0888

Residues: AATCGCCG
Target Entity: Stb5 (UniProt P38699)
PBM E-score: 0.407

Residues: CCTATAAG
Target Entity: Stb5 (UniProt P38699)
PBM E-score: -0.0382

Residues: CCTTAATA
Target Entity: Stb5 (UniProt P38699)
PBM E-score: 0.03

====

Target Entity: Stb5 (UniProt P38699)
Sequence: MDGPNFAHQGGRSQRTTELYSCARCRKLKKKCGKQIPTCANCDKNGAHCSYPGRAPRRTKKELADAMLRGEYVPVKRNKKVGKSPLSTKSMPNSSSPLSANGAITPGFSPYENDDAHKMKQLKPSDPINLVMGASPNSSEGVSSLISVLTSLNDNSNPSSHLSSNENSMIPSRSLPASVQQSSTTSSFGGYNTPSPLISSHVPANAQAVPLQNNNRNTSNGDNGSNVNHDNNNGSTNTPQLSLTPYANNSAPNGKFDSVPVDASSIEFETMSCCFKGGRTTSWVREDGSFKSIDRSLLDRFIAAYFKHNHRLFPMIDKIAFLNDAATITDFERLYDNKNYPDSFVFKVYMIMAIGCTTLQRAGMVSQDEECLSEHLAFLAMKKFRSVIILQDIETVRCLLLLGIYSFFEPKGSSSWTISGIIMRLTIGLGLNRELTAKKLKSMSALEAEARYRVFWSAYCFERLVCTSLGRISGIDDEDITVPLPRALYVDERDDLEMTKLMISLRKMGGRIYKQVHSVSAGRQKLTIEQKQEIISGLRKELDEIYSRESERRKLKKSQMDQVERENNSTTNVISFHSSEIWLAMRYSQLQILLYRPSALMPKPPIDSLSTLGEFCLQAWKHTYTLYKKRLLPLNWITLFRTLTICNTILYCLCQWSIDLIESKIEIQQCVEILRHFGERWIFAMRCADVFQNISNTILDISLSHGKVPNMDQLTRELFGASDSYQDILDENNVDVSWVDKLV
Method Summary: PBM E-score (8-mer binding enrichment) (E-score (-0.5 to 0.5)); higher = stronger / more preferred TF binding
Measurement Context: protein concentration: 200 nM; construct: GST-full length
The full ranking holds about 33,000 sequences; the median of “E-score (-0.5 to 0.5)” is about -0.054, and the highest 2% start at about 0.35. Only a selection was taken, and the highest values are over-represented in it overall.
Entry flag: Criterion met if PBM E-score reaches 0.2; Criterion not met if it does not.

Residues: AGCGGTGG
Assigned Label: Criterion met
//
Residues: AGCGGTTC
Assigned Label: Criterion not met
//
Residues: AGCGGTGA
Assigned Label: Criterion met
//
Residues: CCGAAGCG
Assigned Label: Criterion met
//
Residues: CACCGACA
Assigned Label: Criterion met
//
Residues: AGCGGTGC
Assigned Label: Criterion met
//
Residues: CTTCGGGA
Assigned Label: Criterion not met
//
Residues: TGGAAGAA
Assigned Label: Criterion not met
//
Residues: CCGCATTA
Assigned Label: Criterion met
//
Residues: CAGGCATG
Assigned Label: Criterion not met
//
Residues: GGGTTTCA
Assigned Label: Criterion not met
//
Residues: TGTGGGAA
Assigned Label: Criterion not met
